// reported cell viability per item
Test system: OCI-AML2
test name: cell viability relative to vehicle control; higher = less cytotoxic;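 further: after 48 h exposure read by CellTiter-Glo luminescence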
experimental parameters: 10 µM; SRSF2 genotype: P95H/wt
Write down the numeric answer in % and omit the unit.

compound	cell viability [%]
CC#CC(=O)N1CCC[C@H]1c1nc(-c2ccc(C(=O)Nc3ccccn3)cc2)c2c(N)nccn12	90.2

I would be grateful if you could share the reported cell viability for CC(=O)OCC=Cc1ccccc1 [Cinnamyl acetate] . 101

I would be grateful if you could share the reported cell viability for O=C(O)CCCC[C@@H]1CCSS1 (racemic) . 97.1

I would be grateful if you could share the reported cell viability for Cc1ccccc1C(C(=O)NC1CCCCC1)N(C(=O)Cn1ccnc1C)c1cccc(F)c1 (centres undefined) . 101

I would be grateful if you could share the reported cell viability for COc1ccc2cc1Oc1ccc(cc1)C[C@H]1c3c(cc4c(c3Oc3cc5c(cc3OC)CCN(C)[C@@H]5C2)OCO4)CCN1C . 0.56

I would be grateful if you could share the reported cell viability for CNC(=O)c1c(C)oc2cc(Oc3ncnc4cc(OC)c(OC)cc34)ccc12 . 84.3

I would be grateful if you could share the reported cell viability for C[N+]1(C)CCCC1C(=O)[O-] (centres undefined) [Stachydrine] . 106

I would be grateful if you could share the reported cell viability for O=Cc1ccc(O)c(O)c1 [3,4-Dihydroxybenzaldehyde] . 88.9

I would be grateful if you could share the reported cell viability for CC[C@@H]([C@H](C)O)n1ncn(-c2ccc(N3CCN(c4ccc(OC[C@@H]5CO[C@@](Cn6cncn6)(c6ccc(F)cc6F)C5)cc4)CC3)cc2)c1=O . 18.1

---

Tested on: OCI-AML2
test name: cell viability relative to vehicle control; higher = less cytotoxic
experimental parameters: 10 µM; SRSF2 genotype: P95H/wt
Where a name gives a salt, the structure may show the parent alone.
// returns class 0 unless cell viability is strictly below 30%, in which case class 1

compound	discrete label
COc1cc2c3cc1Oc1c(OC)c(OC)cc4c1[C@@H](Cc1ccc(O)c(c1)Oc1ccc(cc1)C[C@@H]3N(C)CC2)N(C)CC4 [Berbamine]	class 0
CCN1C(=O)CNc2ncc(-c3ccc(-c4nc[nH]n4)nc3C)nc21	class 1
CCCSc1nc(N[C@@H]2C[C@H]2c2ccc(F)c(F)c2)c2nnn([C@@H]3C[C@H](OCCO)[C@@H](O)[C@H]3O)c2n1	class 0
C=C1CCN([C@H](C)[C@](O)(Cn2cncn2)c2ccc(F)cc2F)CC1	class 0
N=c1ccn2c(n1)O[C@H]1[C@H](O)[C@@H](CO)O[C@H]12 [Cyclocytidine HCl]	class 1
C/C=C(/C)C(=O)O[C@@H]1[C@H](OC(C)=O)c2c(ccc3ccc(=O)oc23)OC1(C)C	class 0

Does the reported cell viability of Cc1ccc(C(=O)Nc2ccc(Oc3cc4cnn(C)c4cc3-c3cn[nH]c3)c(F)c2)c(=O)n1-c1ccc(F)cc1 stay below 30%? class 1

---

System: K562
test name: cell viability relative to vehicle control; higher = less cytotoxic
experimental parameters: 10 µM; SRSF2 genotype: SRSF2 wt/wt
// returns criterion not met unless cell viability is strictly below 90%, in which case criterion met

Example cases with answers are listed next.
smiles notation	target system	discrete label
N=C(NCCCCCCNC(=N)NC(=N)Nc1ccc(Cl)cc1)NC(=N)Nc1ccc(Cl)cc1	K562	criterion met
O=C(c1ccccc1)c1ccc2nc(NC(=O)c3csc(C4CCN(c5ncnc6ccsc56)CC4)n3)[nH]c2c1	K562	criterion met

Could you now consider this next compound?
Does the reported cell viability of C/C=C(/C)C(=O)O[C@H]1c2cc(OC)c(OC)c(OC)c2-c2c(cc3c(c2OC)OCO3)C[C@H](C)[C@]1(C)O stay below 90%? criterion not met

The measurements presented in this section are drawn from the supplement of paper PMC10981050.
